method_notes: Partition of cannabinoids between degummed cannabis oil miscella and water/ethanol/base extraction solvent in a fiber conduit contactor
Type: physicochemical
Parameters: scale not given here
test_conditions: Base Na2CO3; H2O/EtOH/Base (wt %) 73.2/24.2/2.6
Documented Partition coefficient across a set of compounds
Give only the figure.

>  <compound>
CCCCCc1cc2c(c(O)c1C(=O)O)[C@@H]1C=C(C)CC[C@H]1C(C)(C)O2 [THCA, tetrahydrocannabinolic acid]

>  <property_measured>
Partition coefficient

>  <reported_measurement>
−0.02

$$$$
>  <compound>
CCCCCc1cc(O)c2c(c1)OC(C)(CCC=C(C)C)C=C2 (stereo not shown)

>  <property_measured>
Partition coefficient

>  <reported_measurement>
−0.16

$$$$
>  <compound>
C=C(C)[C@@H]1CCC(C)=C[C@H]1c1c(O)cc(CCCCC)cc1O [CBD, cannabidiol, reference compound]

>  <property_measured>
Partition coefficient

>  <reported_measurement>
−0.86

$$$$

Incoming: If you can, please state the reported Partition coefficient value of C=C(C)[C@@H]1CCC(C)=C[C@H]1c1c(O)cc(CCCCC)c(C(=O)O)c1O .
Outgoing: −2.22
